B1: TPR t1 (parent)
chain: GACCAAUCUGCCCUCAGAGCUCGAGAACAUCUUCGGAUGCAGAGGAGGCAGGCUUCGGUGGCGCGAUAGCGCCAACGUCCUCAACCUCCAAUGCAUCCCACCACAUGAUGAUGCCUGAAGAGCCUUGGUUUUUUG

variants of: B1; test: polymerase ribozyme fitness, log enrichment relative to wild type (log ratio); higher = more active; in vitro selection for triplet polymerase activity
Respond with y for polymerase ribozyme fitness (log ratio) values of -4 and above, n for values below.

C34G A41C C56A A66U C115A    n
C56A C88U C101U U106G C123A    y
A29U C94A C102G U109C U130C    n
A18C G47A A121U    y
C22A G52A    n

Exam item: Is polymerase ribozyme fitness (log ratio) at least -4? Consider G45C G58A A121C
Marked response: y

Exam item: Could you verify whether the entry G39U C40G U106A U109A G120C shows polymerase ribozyme fitness (log ratio) of no less than -4?
Marked response: n

Exam item: Entry G44C C53G : is its polymerase ribozyme fitness (log ratio) no less than -4?
Marked response: y

Exam item: For this variant, is measured polymerase ribozyme fitness (log ratio) -4 or higher? G45A A108G
Marked response: y

Exam item: API: above_or_equal(metric=polymerase ribozyme fitness (log ratio), cutoff=-4) for item U55G G61U C114U
Marked response: y

Exam item: Can G47A C72U A121U be said to have polymerase ribozyme fitness (log ratio) at or above -4?
Marked response: y

Exam item: Is polymerase ribozyme fitness (log ratio) at least -4? Consider A50C U130A
Marked response: y

Exam item: Is polymerase ribozyme fitness (log ratio) for C12U C79U at or above -4?
Marked response: y
